Data provenance is patent US20220054465A1.

system: HEK-Blue TGFβ cell; assay: HEK-Blue TGFβ cellular reporter gene assay (SEAP readout); type: cell-based; settings: HEK-Blue TGFβ cells stimulated with TGF-β, 22-23 h incubation, SEAP read at 630 nm
pIC50: −log10 of the molar value.

Smiles notation: Cc1ccc(Oc2ccnc(Nc3cccc(C(C)(C)C(=O)O)c3)c2)c(-c2ccc(Cl)cc2)n1
pIC50: 6.74

Smiles notation: Cn1cc(Oc2ccnc(Nc3cccc(C(C)(C)C(=O)O)c3)c2)c(-c2ccccc2)n1
pIC50: 7.30

Smiles notation: Cc1cc(CC(C)(C)C(=O)O)cc(Nc2cc(Oc3ccc(C)nc3-c3ccccc3)ccn2)c1
pIC50: 7.92

Smiles notation: Cc1cc(Nc2cc(Oc3cc(C)c(C)nc3-c3ccccn3)ccn2)cc(C(C)(C)C(=O)O)c1
pIC50: 7.11

Smiles notation: Cc1ccc(Oc2ccnc(Nc3cccc(CCC(=O)O)n3)c2)c(C)n1
pIC50: 6.70

Smiles notation: CC(C)(C(=O)O)c1ccc(Nc2cc(Oc3cn(C4CC4)nc3C3CCOCC3)ccn2)cc1
pIC50: 6.29

Smiles notation: Cc1cc(Nc2cc(Oc3cc(Cl)c(C)nc3C)ccn2)cc(C(C)(C)C(=O)O)c1
pIC50: 7.57

Smiles notation: Cc1ccc(Oc2ccnc(Nc3cccc(CCC(=O)O)c3F)c2)c(C)n1
pIC50: 6.66

---

test system: HEK-Blue TGFβ cell; test: HEK-Blue TGFβ cellular reporter gene assay (SEAP readout); format: cell-based; conditions: HEK-Blue TGFβ cells stimulated with TGF-β, 22-23 h incubation, SEAP read at 630 nm
Property: log10 IC50 (log10 of the value in nM)

Compound: Cc1ccc(Oc2ccnc(Nc3cccc(CCc4nn[nH]n4)c3)c2)c(C(F)(F)F)n1 [Example 58]
log10 IC50: 2.18

Compound: Cc1cc(Oc2ccnc(Nc3ccc(Cc4nnn[nH]4)cc3)c2)c(-c2ccccn2)nc1C [Example 15]
log10 IC50: 3.26

Compound: Cc1cc(Nc2cc(Oc3cn(C4CC4)nc3C3CCOCC3)ccn2)cc(C(C)(C)c2nn[nH]n2)c1 [Example 196]
log10 IC50: 2.43

Compound: Cc1ccc(Oc2ccnc(Nc3cccc(CC(C)(C)c4nn[nH]n4)c3)c2)c(-c2ccccc2)n1 [Example 192]
log10 IC50: 1.81

Compound: Cc1ccc(Oc2ccnc(Nc3cccc(CCC(=O)O)c3)c2)c(C#N)n1 [Example 43]
log10 IC50: 3.58

Compound: Cc1cc(Nc2cc(Oc3cn(C4CC4)nc3-c3ccccc3)ccn2)cc(C(C)(C)C(=O)O)c1 [Example 169]
log10 IC50: 0.85

---

This section presents compounds with their documented IC50 values.
tested on: HEK-Blue TGFβ cell; test: HEK-Blue TGFβ cellular reporter gene assay (SEAP readout); type: cell-based; settings: HEK-Blue TGFβ cells stimulated with TGF-β, 22-23 h incubation, SEAP read at 630 nm

Smiles notation: CC(C)(C(=O)O)c1cccc(Nc2cc(Oc3cn(C4CC4)nc3-c3ccccc3)ccn2)c1
Readout unit: µM
IC50: 0.013
--
Smiles notation: CCc1nc(-c2ccccn2)c(Oc2ccnc(Nc3cccc(CCC(=O)O)c3)c2)cc1C
Readout unit: µM
IC50: 0.042
--
Smiles notation: Cc1nc(-c2ccccn2)c(Oc2ccnc(Nc3cccc(CCc4nn[nH]n4)c3)c2)cc1C1CC1
Readout unit: µM
IC50: 0.64
--
Smiles notation: CCc1nc(C)c(Oc2ccnc(Nc3cc(C)cc(CC(C)(C)C(=O)O)c3)c2)cc1Cl
Readout unit: µM
IC50: 0.023
